Cited source: patent US20220389230A1

test name: Confirmation of safety: presence or absence of danger (Table 2)
readout label: Judging danger to human body

# count of solved cases: 5
[[record]]
compound = "N"
readout_label = "Judging danger to human body"
readout_value = "Very dangerous"

[[record]]
compound = "O=C([O-])CC(O)(CC(=O)[O-])C(=O)[O-].[Na+].[Na+].[Na+] [Sodium citrate]"
readout_label = "Judging danger to human body"
readout_value = "The risk is small"

[[record]]
compound = "O=C([O-])[O-].[Na+].[Na+] [sodium carbonate]"
readout_label = "Judging danger to human body"
readout_value = "The risk is small"

[[record]]
compound = "[K+].[OH-] [Potassium hydroxide]"
readout_label = "Judging danger to human body"
readout_value = "Very dangerous"

[[record]]
compound = "O=C([O-])[O-].[K+].[K+] [Potassium carbonate]"
readout_label = "Judging danger to human body"
readout_value = "The risk is small"


Turning to the following compound.
Using known records, supply Judging danger to human body for [Ca+2].[OH-].[OH-] [Calcium hydroxide]
The risk is small

====

Listed here: items and their measured pH of aqueous solution.
test name: Corrosiveness of alkaline substances to aluminum, change in appearance after 24 hours
Description: For comparison with the aqueous solution shown in Table 3, a slurry liquid obtained by adding 10 parts by weight of water to 20 parts by weight of ordinary Portland cement was allowed to contact with an aluminum plate (A1050) not subjected to the surface treatment and an aluminum sash frame coated with a sulfuric acid anodized film at the spot, and a change in the appearance after 24 hours was observed.

Past entries and their recorded results:
[[record]]
compound = "O=C([O-])[O-].[K+].[K+] [Potassium carbonate]"
readout_value = 11

[[record]]
compound = "[Ca+2].[OH-].[OH-] [Calcium hydroxide]"
readout_value = 12

[[record]]
compound = "O=C([O-])[O-].[Na+].[Na+] [sodium carbonate]"
readout_value = 12


Turning now to a further compound:
Report measured pH of aqueous solution; entry is [K+].[OH-] [Potassium hydroxide]
15
